Experiment: in vitro
Details: human, hela cells, % viability
readout-label: viability at 28.5 h, 10 µM (%)
Please respond with the number in % and leave the unit unwritten.

Here is how some molecules turned out for viability at 28.5 h, 10 µM.
Cc1cc(C)n(CCCN(C)Cc2ccc(N3CCCC3=O)cc2)n1 ... 88.3
COC(=O)[C@@H](C)NC(=O)[C@@H]1CN(S(C)(=O)=O)CCN1C(=O)c1cccs1 ... 89.6
COc1cccc(-c2cncc(C3CCN(C(=O)CCOc4ccccc4)CC3)n2)c1 ... 88.9
O=C(Nc1ccccc1)c1cc2sccc2s1 ... 87.9

Query :: Recorded viability at 28.5 h, 10 µM of CC(C)(C)CC(NC(=O)C1CCCN(S(C)(=O)=O)C1)c1ccccc1 (stereo not drawn) , please.
Result :: 90.6

Query :: What would you report for "Cc1cc(S(=O)(=O)N2CCCC2)ccc1OCC(=O)O" ?
Result :: 89

Query :: What would you report for COCC(C)NC(=O)c1nn(-c2nc3ccccc3s2)c2ccccc12 (stereo not drawn) ?
Result :: 92.6

Query :: What would you report for "CC[C@H](Cn1c(=O)oc2ccccc21)NC(=O)Cc1ccsc1" ?
Result :: 89.2

Query :: What would you report for "Cc1cc(C)c2c(N)c(-c3ccncc3)sc2n1" ?
Result :: 88.7

----------
Experiment: in vitro
Conditions: human, hela cells, % viability
readout-label: viability at 28.5 h, 10 µM

O=[N+]([O-])c1ccccc1CN1CCN(Cc2cccc(Oc3ccccc3)c2)CC1 ... 91.3%
COc1ccc(-c2nc3ccccn3c2CN2CCC(C(=O)O)CC2)cc1OC ... 89.9%
Cc1nc2nc(SCc3cc(=O)n4ccccc4n3)nn2c(C)c1Cc1ccccc1 ... 89.9%

Query :: Recorded viability at 28.5 h, 10 µM of "Cc1ncsc1CCOc1nc2cc(Cl)c(Cl)cc2nc1NC(C)C" , please.
Result :: 88.6%

----------
Test: in vitro
Details: human, hela cells, % viability
// reported viability at 28.5 h, 10 µM per item
Please respond with the number in % and leave the unit unwritten.

COCC(=O)N[C@H]1C[C@H]2C(=O)Nc3ccc(/C=C/c4ccccc4)cc3C(=O)N2C1 ... 90.2
O=S(=O)(Nc1ccc2nsnc2c1)c1ccc(F)cc1 ... 90.2

Okay, next one:
Query :: Recorded viability at 28.5 h, 10 µM of CC(=O)Nc1ccc(S(=O)(=O)N2CCN(c3ccc([N+](=O)[O-])c(NC4C5CC6CC(C5)CC4C6)c3)CC2)cc1 (stereo not drawn) , please.
Result :: 90.5

----------
Assay: in vitro
Settings: human, hela cells, % viability
// reported viability at 28.5 h, 10 µM per item
Please respond with the number in % and leave the unit unwritten.

CC1CCN(C(=O)C2CC(=O)N(c3ccc(C(=O)O)cc3)C2)CC1 (centres unmarked) ... 87.6

Okay, next one:
Query :: Recorded viability at 28.5 h, 10 µM of Cc1cc(S(=O)(=O)NCC(C)n2nc(C)c(C)c2C)ccc1F (centres unmarked) , please.
Result :: 87.4

----------
Experiment: in vitro
Conditions: human, hela cells, % viability
readout-label: viability at 28.5 h, 10 µM (%)
Please respond with the number in % and leave the unit unwritten.

CCCc1ccc(C(=O)NCC(C)n2cncn2)o1 (stereo not shown) ... 92.5

Query :: Recorded viability at 28.5 h, 10 µM of CCC1=C(C)C(=O)N(C(=O)NCCc2ccc(S(=O)(=O)NC(=O)NC3CCC(C)CC3)cc2)C1 (stereo not shown) , please.
Result :: 93.2

Query :: What would you report for "CC(=O)NCc1cccc(-c2cc(CO)cnc2-c2ccc(Cl)cc2)c1" ?
Result :: 94.6

Query :: What would you report for "O=C(c1cccs1)N1CCC(n2cnc3cccnc32)CC1" ?
Result :: 88.4

Query :: What would you report for "CCN(CC)c1nc2n(c(=O)n1)CCN2CC" ?
Result :: 94.9

Query :: What would you report for "Cc1cc(=O)oc2cc(Sc3ccc([N+](=O)[O-])cc3)ccc12" ?
Result :: 95.7

Query :: What would you report for "CCCCc1c(C(=O)O)cc(OC)cc1C(=O)O" ?
Result :: 93.5

Query :: What would you report for COc1ccc([C@@]23CCC(N)C[C@@H]2N(C)CC3)cc1OC (stereo partly shown) ?
Result :: 114

Query :: What would you report for "COc1ccc(C(C)C)cc1-c1cn2ccnc2c(Nc2ccc(N3CCOCC3)cc2)n1" ?
Result :: 103

Query :: What would you report for COc1ccc(C(CNC(=O)C(=O)Nc2ccc(C(=O)O)cc2)N(C)C)cc1 (stereo not shown) ?
Result :: 119

Query :: What would you report for "COc1ccccc1OCC(=O)Nc1cc(C)nc2ccccc12" ?
Result :: 97.3

Query :: What would you report for "Cc1ccc(Nc2cc(-c3cc4ccccc4o3)ncn2)cc1NS(C)(=O)=O" ?
Result :: 93.6

Query :: What would you report for "CCOc1ccc(CN2CCN(C(=O)c3cccc(C#N)c3)CC2)cc1" ?
Result :: 93.5

Query :: What would you report for "Cc1cccc(C(=O)Oc2ccc(-n3ccnc3)cc2)c1" ?
Result :: 101

----------
Assay: in vitro
Conditions: human, hela cells, % viability
// reported viability at 28.5 h, 10 µM per item
Please respond with the number in % and leave the unit unwritten.

Here is how some compounds turned out for viability at 28.5 h, 10 µM.
CCn1c(CC2CCN(C(=O)CCn3nnnc3C)CC2)nn(C)c1=O ... 104
Cc1cccc(-n2ncc3c2ncn2c(COc4ccccc4C)nnc32)c1 ... 86.2
COc1ccc(NC(=O)C(=O)NCc2ccncc2)cc1 ... 105

Okay, next one:
Query :: Recorded viability at 28.5 h, 10 µM of "c1cc2c(cc1-c1nn3cnnc3s1)OCCO2" , please.
Result :: 88.1

----------
Experiment: in vitro
Conditions: human, hela cells, % viability
readout-label: viability at 28.5 h, 10 µM
Units required after the number.

Query :: Recorded viability at 28.5 h, 10 µM of Cn1cc(NC(=O)C2CCCN(c3ncccn3)C2)cn1 (stereo not drawn) , please.
Result :: 108%

Query :: What would you report for "COc1ccc(-c2cc(C(=O)NCCS(C)(=O)=O)cnc2-c2ccc(Cl)cc2)cc1" ?
Result :: 111%

Query :: What would you report for Cc1cccnc1C(NC(=O)C1CCN(Cc2cccn2C)CC1)c1ccc(Cl)cc1 (stereo not drawn) ?
Result :: 110%

Query :: What would you report for "FC(F)(F)c1cccc(-c2cnn(-c3ccc4c(c3)OCO4)n2)c1" ?
Result :: 89.6%

Query :: What would you report for "O=C(O)c1cccc2c1C(=O)N(Cc1cccnc1)C2" ?
Result :: 119%

Query :: What would you report for O=C(NC1Cc2ccccc2C1)c1cccc(-c2ccc(CC3CCCNC3=O)cc2)c1 (stereo not drawn) ?
Result :: 94.9%

----------
// reported viability at 28.5 h, 10 µM per item
Assay: in vitro
Conditions: human, hela cells, % viability
Please respond with the number in % and leave the unit unwritten.

Here is how some compounds turned out for viability at 28.5 h, 10 µM.
CCOC(=O)CN1C(=O)S/C(=C/c2cc(C)n(-c3cc(C)ccn3)c2C)C1=O ... 95.2
Cc1cc(C)c2c(c1)COC1(CCN(Cc3ccccc3)CC1)O2 ... 102
COc1ccc(OCC(=O)Nc2cc3oc4ccccc4c3cc2OC)cc1 ... 88.5
Cc1ccc2c(CC(=O)N(C)CCN(C)C)c(C)[nH]c2c1C ... 102

Okay, next one:
Query :: Recorded viability at 28.5 h, 10 µM of COc1ccc(S(=O)(=O)N2CCC(C(=O)N(C)C(c3cnccn3)c3ccccc3C)CC2)cc1 (centres unmarked) , please.
Result :: 99.3

----------
Assay: in vitro
Conditions: human, hela cells, % viability
// reported viability at 28.5 h, 10 µM per item
Please respond with the number in % and leave the unit unwritten.

Here is how some compounds turned out for viability at 28.5 h, 10 µM.
CC1CCN(C(C)Cn2cncc2-c2cnn(C)c2)CC1 (stereo not drawn) ... 95.5
O=C(O)CNC(=O)/C(=C\c1ccccc1F)NC(=O)c1ccccc1 ... 96.5
O=C1CCCN1c1ccc(S(=O)(=O)NC2C3CCCCC32)cc1 (stereo not drawn) ... 101
Cc1nc2c(c(=O)[nH]1)CCN(C(=O)c1cc(C3CC3)oc1C)C2 ... 92.5

Query :: Recorded viability at 28.5 h, 10 µM of "O=C(Nc1ccc(F)cc1)c1ccccc1NS(=O)(=O)c1ccc(Br)cc1" , please.
Result :: 100

Query :: What would you report for "N#Cc1ccc(CN2CCCN(S(=O)(=O)c3ccc(C(F)(F)F)cc3Cl)CC2)cc1" ?
Result :: 98

----------
Experiment: in vitro
Conditions: human, hela cells, % viability
readout-label: viability at 28.5 h, 10 µM (%)
Please respond with the number in % and leave the unit unwritten.

Here is how some molecules turned out for viability at 28.5 h, 10 µM.
CC1CC(=O)N(c2cccc(C(=O)Nc3cccc(-c4cccc(F)c4)c3)c2)C1=O (stereo not drawn) ... 103
COc1ccc(-c2cc(Nc3ccccc3)ncn2)cc1 ... 93.9
CCC(=O)N1CCC(NC(=O)N(CCc2ccccn2)Cc2ccccc2)CC1 ... 90.9

Query :: Recorded viability at 28.5 h, 10 µM of O=C(Nc1cccc2ccccc12)C(c1ccccc1)N1CCOCC1 (stereo not drawn) , please.
Result :: 102

Query :: What would you report for COc1cccc(C(CNS(=O)(=O)c2ccc3c(c2)OCCCO3)N(C)C)c1 (stereo not drawn) ?
Result :: 98.2

Query :: What would you report for "N=c1c2c3c(sc2ncn1CCCn1ccnc1)CCCC3" ?
Result :: 95.5

Query :: What would you report for "Nc1nc(=O)c2cnc3c(F)cccc3c2s1" ?
Result :: 91.1

Query :: What would you report for CCc1cccc(C)c1NC(=O)C1C2CCC(O2)C1C(=O)O (stereo not drawn) ?
Result :: 88.1

Query :: What would you report for "CC(C)[C@H](NS(=O)(=O)c1ccc(Cl)cc1)C(=O)NCc1ccc(Cn2cccn2)cc1" ?
Result :: 104
